The reported measurements were obtained from patent US20110038881A1.

# TESTED_TARGET: HLA-DRB1*0401 (human)
# MEASUREMENT_NOTES: competition binding
# CONDITION_SET: modification not given
READOUT_KIND: IC50

AAVVVPSGQEQRYTC [p47]	> 100 µM
IAVGYVDDTQFVRFD [p5]	31 µM
RSWTAADMAAQTTKH [p28]	1.53 µM

Look up IC50 for this binder: VRFDSDAASQRMEPR [p8*]
3.39 µM

Entry LTLRWEPSSQPTIPI [p51*] has what IC50?
0.497 µM

Can you look up the measured IC50 of EGLPKPLTLRWEPSS [p49] for me?
0.497 µM

Item LTWQRDGEDQTQDTE [p43] has what recorded IC50?
> 100 µM

Field request: IC50 | item: KPLTLRWEPSSQPTI [p50*]
0.134 µM

# lookup: IC50 of THMTHHAVSDHEATL [p38]
> 100 µM

What does the data say about its IC50? Entry: RGYYNQSEAGSHTVQ [p16*]
0.494 µM

Any idea what its IC50 is? The binder is HRVDLGTLRGYYNQS [p13*]
4.04 µM

Look at this binder and give its reported IC50. HQYAYDGKDYIALKE [p23]
17.7 µM

Any idea what its IC50 is? The binder is LSFYPAEITLTWQRD [p41]
0.917 µM

Requested field: IC50. Item: PEYWDGETRKVKAHS [p11]
63.2 µM

Any idea what IC50 was measured for ADMAAQTTKHKWEAA [p29] ?
> 100 µM
